Experiment Description: Selectivity index, ratio of IC50 for human PTC cells to IC50 for Plasmodium falciparum
Assay type: toxicity
Test Context: read-out: Ratio IC50
Endpoint Label: selectivity ratio

Value of selectivity ratio reported for the compound CCCCc1nc2cc(/C=C/C(=O)NO)ccc2n1CCN(CC)CC [PRACINOSTAT] is 4 to 1250

----------
Test system: Vero
Experiment Description: Cytotoxicity against African green monkey Vero cells by neutral red assay
Format: cell-based
Test Context: Chlorocebus sabaeus
pIC50: −log10 of the molar value.
Endpoint Label: pIC50

Value of pIC50 reported for the molecule Cn1cc(C(=O)Cc2ccccc2)cc1/C=C/C(=O)NO is < 4.70

----------
Experiment Description: Selectivity index, ratio of IC50 for human NHDF cells to IC50 for Plasmodium falciparum
Format: toxicity
Test Context: read-out: Ratio IC50
Endpoint Label: selectivity ratio

Value of selectivity ratio reported for the molecule CCCCc1nc2cc(/C=C/C(=O)NO)ccc2n1CCN(CC)CC is 4 to 1250
